melting point listing for selected molecules.
Answer in °C, number only, no unit symbol.

Q. Name the reported melting point value associated with the molecule CCCCCCCNC(=O)C(c1ccccc1)c1ccccc1 [Example 8, N-Heptyl-2,2-diphenyl-acetamide]
A. 90

----------
melting point listing for selected molecules.

Look over these answered cases.
> print(dat)
                    smilesnotation         reported
1  CCCOCCNC(=O)C(c1ccccc1)c1ccccc1  77.8 to 78.9 °C
2   CCOCCNC(=O)C(c1ccccc1)c1ccccc1  83.5 to 86.2 °C
3  COCCCCNC(=O)C(c1ccccc1)c1ccccc1  75.5 to 76.8 °C

Q. Name the reported melting point value associated with the molecule "COCCCCCNC(=O)C(c1ccccc1)c1ccccc1"
A. 74.2 to 75 °C

----------
Record t whenever melting point is at 100 °C or higher; record f when lower.

Example entries begin here.
> print(dat)
                                   compound  cat
1  CC(C(=O)NCC1CC1)(c1ccccc1)c1ccccc1 [Example 11]    t
2  O=C(NCCCC(F)(F)F)C(c1ccccc1)c1ccccc1 [Example 26]    t
3  CC(C(=O)NCCCC(F)(F)F)(c1ccccc1)c1ccccc1 [Example 27]    f
4  O=C(NCC1CC1)C(c1ccccc1)c1ccccc1 [Example 10]    t
5  CCCNC(=O)C(C)(c1ccccc1)c1ccccc1 [Example 3, 2,2-Diphenyl-N-propyl-propionamide]    f
6  C#CCCCNC(=O)C(c1ccccc1)c1ccccc1 [Example 28, N-Pent-4-ynyl-2,2-diphenyl-acetamide]    f
7  CCCNC(=O)C(c1ccccc1)c1ccccc1 [Example 2, 2,2-Diphenyl-N-propyl-acetamide]    f
8  CC=CCCCNC(=O)C(c1ccccc1)c1ccccc1 [Example 17, N-Hex-4-enyl-2,2-diphenyl-acetamide]    f

Q. Determine whether measured melting point meets or exceeds 100 °C for CCCCNC(=O)C(c1ccccc1)c1ccccc1 [Example 5, N-Butyl-2,2-diphenyl-acetamide]
A. f

Q. Check O=C(NC1CC1)C(c1ccccc1)c1ccccc1 [Example 7, N-Cyclopropyl-2,2-diphenyl-acetamide] too.
A. t

Q. Check CC(C(=O)NCC1CCC1)(c1ccccc1)c1ccccc1 [Example 25] too.
A. f
